assay: Solubility in water; format: physicochemical; details: Method B product, read-out: solubility
measurement-label: solubility (mg/mL)

- O=C(Nc1c(I)c(NC(=O)C(=O)[C@@H](O)[C@H](O)[C@@H](O)CO)c(I)c(C(=O)NCCO)c1I)C(=O)[C@@H](O)[C@H](O)[C@@H](O)CO: 1000

---

assay: Solubility in water; type: physicochemical; settings: Method A product, read-out: highly water soluble
measurement-label: solubility

• O=C(Nc1c(I)c(NC(=O)C(=O)[C@@H](O)[C@H](O)[C@@H](O)CO)c(I)c(C(=O)NCCO)c1I)C(=O)[C@@H](O)[C@H](O)[C@@H](O)CO = ≥ 1000 mg/mL

---

assay: in vivo; conditions: rat, in vivo
measurement-label: LD50 at 48 h

• O=C(Nc1c(I)c(NC(=O)C(=O)[C@@H](O)[C@H](O)[C@@H](O)CO)c(I)c(C(=O)NCCO)c1I)C(=O)[C@@H](O)[C@H](O)[C@@H](O)CO = 1340 mg/kg

---

experiment: in vivo; details: mouse, in vivo, iv
measurement-label: LD50 at 168 h (mg/kg)

- O=C(Nc1c(I)c(NC(=O)C(=O)[C@@H](O)[C@H](O)[C@@H](O)CO)c(I)c(C(=O)NCCO)c1I)C(=O)[C@@H](O)[C@H](O)[C@@H](O)CO: 44200
